Origin of the recorded values: patent US20150299233A1

- Tested on: A549 cells
- protocolNotes: MTT cytotoxicity assay, A549 cells
- Assay type: cell-based, human
- measurementContext: Table 1; 72 h exposure; ± standard deviation; read-out: IC50 A549 lung carcinoma
pIC50: −log10 of the molar value.
propertyName: pIC50

- N.N.[Cl][Pt][Cl] [cisplatin, reference compound]: 5.49
- C[O][Re-2]1(=[O])([Cl])([Cl])[n+]2cc(C)c(C)c3ccc4c(C)c(C)c[n+]1c4c32 [Compound 2]: 6.80
- C[O][Re](=[O])([Cl])[Cl].c1ccc(-c2ccnc3c2ccc2c(-c4ccccc4)ccnc23)cc1 [Compound 1]: 6.68

* * *

Parameter pIC50: see the listing below.
- Tested on: U2OS
- protocolNotes: MTT cytotoxicity assay, U2OS cells
- Format: cell-based, human
- measurementContext: Table A; average of three independent determinations; read-out: IC50 U2OS (bone)
pIC50: −log10 of the molar value.
propertyName: pIC50

- C[O][Re-2]1(=[O])([Cl])([Cl])[n+]2cc(C)c(C)c3ccc4c(C)c(C)c[n+]1c4c32 [Compound 2]: 6.68
- C[O][Re](=[O])([Cl])[Cl].c1ccc(-c2ccnc3c2ccc2c(-c4ccccc4)ccnc23)cc1 [Compound 1]: 6.56
- N.N.[Cl][Pt][Cl] [cisplatin, reference compound]: 5.34

* * *

Measured pIC50 accompanies every entry in the list below.
- Test system: PC-3 (prostate adenocarcinoma)
- protocolNotes: MTT cytotoxicity assay, PC-3 cells
- Type: cell-based, human
- measurementContext: Table 2; cisplatin-resistant cell line; 72 h exposure
pIC50: −log10 of the molar value.
propertyName: pIC50

• C[O][Re-2]1(=[O])([Cl])([Cl])[n+]2cc(C)c(C)c3ccc4c(C)c(C)c[n+]1c4c32 = 6.11
• N.N.[Cl][Pt][Cl] [cisplatin, reference compound] = 4.99
• C[O][Re](=[O])([Cl])[Cl].c1ccc(-c2ccnc3c2ccc2c(-c4ccccc4)ccnc23)cc1 = 6.57
